- System: NCI-H23
- Assay Info: NCI tumour cell line growth inhibition, 48 h
Calls of active or inactive are those of the source. Cut-off read from the data, not from the text of the source: active = GI50 up to about 1.1 µM and inactive = higher.
Property Measured: GI50

C#Cc1c(C)c(/C=C/C(C)=C/C(=O)OC)n(C)c1C: > 100 µM (inactive)
S=c1[nH]c(Cl)cc2nc(Cl)cn12: 5.82 µM (inactive)
CC(C)CCCC(C)[C@H]1CCC2[C@@H]3CCC4Cc5nc6c(nc5C[C@]4(C)C3CC[C@@]21C)CC1CC[C@@H]2C(C[C@@H](O)[C@@]3(C)C2C[C@@H]2OC4(CCC(C)CO4)C(C)[C@@H]23)[C@@]1(C)C6 (stereo partly specified): > 100 µM (inactive)
CO/C=C/c1cc2c(cc1C(OC)OC)OCO2: 54 µM (inactive)
Cc1oc2nc(N(C)C)n3cnnc3c2c1C: > 100 µM (inactive)

Now turn to the next compound.
Ask | Query: GI50; subject: CC(C)(CCC(C)(C)N1OC1c1ccccc1)N1OC1c1ccccc1 (stereo unspecified)
Reply | 55.3 µM (inactive)
